Hello, the source for this data is patent US10239843B2, in case you need it.

# MEASURED TARGET: Human Full Length PARG (Homo sapiens (Human), UniProt Q86W56)
# Sequence (Q86W56 whole entry): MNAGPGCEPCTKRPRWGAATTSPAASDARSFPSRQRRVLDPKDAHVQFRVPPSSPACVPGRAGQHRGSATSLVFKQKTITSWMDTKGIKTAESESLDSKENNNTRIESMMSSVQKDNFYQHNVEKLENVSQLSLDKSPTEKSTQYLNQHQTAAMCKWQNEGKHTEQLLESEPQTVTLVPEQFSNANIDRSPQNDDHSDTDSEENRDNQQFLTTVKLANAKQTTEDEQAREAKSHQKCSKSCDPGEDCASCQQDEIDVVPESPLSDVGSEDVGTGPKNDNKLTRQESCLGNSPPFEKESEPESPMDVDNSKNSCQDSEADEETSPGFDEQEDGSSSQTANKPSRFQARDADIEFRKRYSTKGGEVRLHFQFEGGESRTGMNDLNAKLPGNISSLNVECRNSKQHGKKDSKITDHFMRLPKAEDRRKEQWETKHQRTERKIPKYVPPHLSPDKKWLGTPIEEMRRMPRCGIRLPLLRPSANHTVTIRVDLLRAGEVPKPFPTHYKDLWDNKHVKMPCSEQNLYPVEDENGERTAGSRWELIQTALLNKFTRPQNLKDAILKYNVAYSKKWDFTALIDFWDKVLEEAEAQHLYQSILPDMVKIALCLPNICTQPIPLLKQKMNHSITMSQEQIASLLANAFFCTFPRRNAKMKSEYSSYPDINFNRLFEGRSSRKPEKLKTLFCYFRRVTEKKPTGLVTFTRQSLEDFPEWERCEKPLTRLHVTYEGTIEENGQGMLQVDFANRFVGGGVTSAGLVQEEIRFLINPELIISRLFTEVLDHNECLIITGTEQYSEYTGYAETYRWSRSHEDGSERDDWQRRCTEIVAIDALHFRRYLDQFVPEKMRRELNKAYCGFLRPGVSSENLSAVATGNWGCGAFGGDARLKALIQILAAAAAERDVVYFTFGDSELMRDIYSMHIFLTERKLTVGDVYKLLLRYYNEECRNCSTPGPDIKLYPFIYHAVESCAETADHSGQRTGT
# ASSAY TEXT: PARG enzyme assay (TR-FRET)
# Format: biochemical
# MEASUREMENT SETUP: read-out: PARG Biochem IC50
PROPERTY: IC50 (nM)

CON(C)C(=O)c1cc(S(=O)(=O)NC2(C)CC2)cc2c(=O)n(Cc3cnn(C)c3)c(=O)[nH]c12 [Example 451] ... 3850

a = Cn1c(=O)n(Cc2cnsc2)c(=O)c2cc(S(=O)(=O)NC3(CF)CC3)ccc21 [Example 494]
b = Cn1cc(Cn2c(=O)c3cc(S(=O)(=O)NC4(CF)CC4)ccc3n(CC3CCOCC3)c2=O)cn1 [Example 442]
Ask: Sorting ascending by IC50, which comes first: a or b ? Return value: the label identifying the chosen record.
Result: b
(b: 43 nM, a: 1260 nM)

* * *

# MEASURED TARGET: Human Full Length PARG (Homo sapiens (Human))
# ASSAY TEXT: PARG enzyme assay (TR-FRET)
# Format: biochemical
# MEASUREMENT SETUP: read-out: PARG Biochem IC50
pIC50: −log10 of the molar value.
PROPERTY: pIC50

A = CCC(CC)Cn1c(=O)n(Cc2cc(C)no2)c(=O)c2cc(S(=O)(=O)NC3(C)CC3)ccc21
B = Cc1cc(Cn2c(=O)c3cc(S(=O)(=O)NC4(CF)CC4)ccc3n(Cc3cocn3)c2=O)on1
Ask: Sorting ascending by pIC50, which comes first: A or B ? Return value: the label identifying the chosen record.
Result: A
(A: 6.26, B: 7.07)

I = Cc1cc(Cn2c(=O)c3cc(S(=O)(=O)NC4(CF)CC4)ccc3n(CC#N)c2=O)on1
II = Cc1nc(Cn2c(=O)n(Cc3cnn(C)c3)c(=O)c3cc(S(=O)(=O)NC4(CF)CC4)ccc32)co1
Ask: Sorting ascending by pIC50, which comes first: I or II ? Return value: the label identifying the chosen record.
Result: I

a = COCCn1c(=O)n(Cc2cc(C)no2)c(=O)c2cc(S(=O)(=O)NC3(CF)CC3)ccc21
b = CN(C)C(=O)c1cc(S(=O)(=O)NC2(C)CC2)cc2c(=O)n(Cc3cnn(C)c3)c(=O)[nH]c12
Ask: I'd appreciate it if you could identify which of a and b has the greater pIC50. Return value: the label identifying the chosen record.
Result: a
(a: 6.68, b: 5.24)

1 = Cn1cc(Cn2c(=O)c3cc(S(=O)(=O)NC4(CF)CC4)ccc3n(Cc3ncnn3C)c2=O)cn1
2 = Cc1cc(Cn2c(=O)c3cc(S(=O)(=O)NC4(C)CC4)ccc3n(CCCO)c2=O)on1
3 = Cn1cc(Cn2c(=O)[nH]c3ccc(S(=O)(=O)NC4(C(F)F)CC4)cc3c2=O)cn1
4 = Cn1c(=O)n(CC(=O)c2ccncc2)c(=O)c2cc(S(=O)(=O)NC3(C)CC3)ccc21
Ask: Please rank these compounds by pIC50 in descending order. The labels, placed in the requested order, form the answer.
Result: 1, 2, 4, 3
(1: 6.72, 2: 6.40, 4: 5.76, 3: 5.39)

I = Cc1ncc(Cn2c(=O)c3cc(S(=O)(=O)NC4(C)CC4)ccc3n(CC#N)c2=O)s1
II = Cn1cc(Cn2c(=O)c3cc(S(=O)(=O)NC4(CF)CC4)ccc3n(CC3CC(F)(F)C3)c2=O)cn1
Ask: Sorting ascending by pIC50, which comes first: I or II ? Return value: the label identifying the chosen record.
Result: I
(I: 6.55, II: 7.20)

I = Cn1cc(Cn2c(=O)c3cc(S(=O)(=O)NC4(CF)CC4)ccc3n(CC3CCCO3)c2=O)cn1 (stereo not shown)
II = CC1(NS(=O)(=O)c2ccc3[nH]c(=O)n(CCc4ccccn4)c(=O)c3c2)CC1
Ask: Sorting ascending by pIC50, which comes first: I or II ? Return value: the label identifying the chosen record.
Result: II
(II: 5.15, I: 6.72)

A = Cc1ccc(Cn2c(=O)n(Cc3cnn(C)c3)c(=O)c3cc(S(=O)(=O)NC4(CF)CC4)ccc32)nc1
B = Cc1cc(Cn2c(=O)c3cc(S(=O)(=O)NC4(C)CC4)ccc3n(C(F)F)c2=O)on1
Ask: Sorting ascending by pIC50, which comes first: A or B ? Return value: the label identifying the chosen record.
Result: B
